Measured values drawn from patent US20210253725A1 for this set.

TGT: T1, CD137 protein (His-tagged, Sino Biological Inc. 10041-H08H) (human, UniProt Q07011 24-186)
T1 construct: bought protein coated on ELISA plates; also called 4-1BB; TNFRSF9; not shown: His tag
PROCEDURE_TEXT: ELISA, coated His-tagged CD137; also: test concentration or dose not given here
Entries and their measured ELISA [abs. corr.] follow.
TEST_READOUT: ELISA [abs. corr.] (abs. corr.)

binder="P018.S.13.A.C02 (antibody, V domains shown, V regions on human Ig constant parts; also called AB137_6) VH: QSVEESGGRLVTPGTPLTLTCTVSGFSLSSYAMSWVRQAPGKGLEWIGIISTSGITYYASWAKGRFTISKTSTMVDLKITSPTTEDTATYFCARLNGFDDYVRYFDFWGLGTLVTVSS VL: AIELTQTPSSVSAAVGGTVTINCQASESIASNLAWYQQKPGQPPKLLIYAASYLASGVPSRFKGSGSGTEYTLTISGVQSADAATYYCQSAFYVSSSDNAFGGGTEVVVK" value_reported=2.55
binder="P018.S.08.A.F03 (antibody, V domains shown, V regions on human Ig constant parts; also called AB137_3) VH: QSVEESGGRLVTPGTPLTLTCTASGFTISSYHMIWVRQAPGEGLEWIGDIYGGTATTDYASWAKGRFTISKTSTTVDLKMTSLTTEDTATYFCARARYSGGSYANYVFNLWGQGTLVTVSS VL: DIVMTQTPASVEAAVGGTVTIKCQASQSISSYLAWYQQKPGQPPKLLIYRTSTLESGVPSRFKGSGSGTEFTLTISDLESADAATYYCQGYDWSSSNRYDNTFGGGTEVVVK" value_reported=2.33
binder="P018.S.08.A.E03 (antibody, V domains shown, V regions on human Ig constant parts; also called AB137_2) VH: QSVEESGGRLVTPGTPLTLTCTVSGFSLTYYAVTWVRQPPGKGLEWIGVIYDNGATAFATWAKGRFTMSKNSTTVALKVTSPTTEDTATYFCARSANNAWSTYSNLWGQGTLVTVSS VL: DIVMTQTPSSVSAAVGGTVTINCQASEDISSYLSWYQQKLGQPPKLLIYKASTLESGVPSRFKGSGSGTEYTLTISDLESDDAATYYCQSYYSGSISGYGFVFGGGTGVVVK" value_reported=3.05
binder="P018.S.08.A.A04 (antibody, V domains shown, V regions on human Ig constant parts; also called AB137_1) VH: QSVEESGGRLVTPGTPLTLTCTVSGFSLSSYAVSWVRQAPGKGLEWIGVIWNNGATHYATWAKGRFTISKASTTVDLKVTSPTTEDTATYFCARSANDAWSTYSDLWGQGTLVTVSS VL: DIVMTQTPASVEAAVGGTVTIKCQASQTITNYLSWYQQKPGQPPKLLIYKASTLTSGVSSRFKGSGSGTEFTLTISDLESDDAATYYCQNYYYGSSSGYGFVFGGGTEVVVK" value_reported=3.42
